- Tested system: G-protein coupled bile acid receptor 1 (Homo sapiens, UniProt Q8TDU6)
- Sequence (Q8TDU6 whole entry): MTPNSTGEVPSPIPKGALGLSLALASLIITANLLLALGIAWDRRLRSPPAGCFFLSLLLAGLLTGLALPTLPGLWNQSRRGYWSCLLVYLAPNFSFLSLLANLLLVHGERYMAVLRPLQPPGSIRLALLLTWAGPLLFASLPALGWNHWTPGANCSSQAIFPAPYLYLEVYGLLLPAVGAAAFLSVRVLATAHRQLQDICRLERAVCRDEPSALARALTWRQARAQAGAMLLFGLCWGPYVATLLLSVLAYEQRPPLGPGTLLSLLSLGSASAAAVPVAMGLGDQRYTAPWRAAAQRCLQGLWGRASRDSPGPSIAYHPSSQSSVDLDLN
- Test name: Agonist activity at N-terminal HA-tagged human TGR5 expressed in HEK293 cells assessed as […] in intracellular cAMP levels incubated for 30 mins by Lance Ultra cAMP assay
pEC50: −log10 of the molar value.
Metric name: pEC50

[[record]]
structure_string = "CC(C)[C@@H]1CC[C@]2(C(=O)O)CC[C@]3(C)[C@H](CC[C@@H]4[C@@]5(C)CC[C@@H](OC(N)=O)C(C)(C)[C@@H]5CC[C@]43C)[C@@H]12"
measured_value = 7.51

[[record]]
structure_string = "CC(C)[C@@H]1CC[C@]2(C(=O)O)CC[C@]3(C)[C@H](CC[C@@H]4[C@@]5(C)CC[C@@H](OC(=O)Nc6ccc(F)cc6)C(C)(C)[C@@H]5CC[C@]43C)[C@@H]12"
measured_value = 5.82

[[record]]
structure_string = "CC(C)[C@@H]1CC[C@]2(C(=O)O)CC[C@]3(C)[C@H](CC[C@@H]4[C@@]5(C)CC[C@@H](OC(=O)Nc6cc[nH]n6)C(C)(C)[C@@H]5CC[C@]43C)[C@@H]12"
measured_value = 6.76

[[record]]
structure_string = "C[C@@H](O)[C@@H]1CC[C@]2(C(=O)O)CC[C@]3(C)[C@H](CC[C@@H]4[C@@]5(C)CC[C@@H](OC(=O)NC6CC6)C(C)(C)[C@@H]5CC[C@]43C)[C@@H]12"
measured_value = 7.42

[[record]]
structure_string = "CC(=O)[C@@H]1CC[C@]2(C(=O)O)CC[C@]3(C)[C@H](CC[C@@H]4[C@@]5(C)CC[C@@H](OC(=O)NC6CC6)C(C)(C)[C@@H]5CC[C@]43C)[C@@H]12"
measured_value = 7.88

